The measured values listed here are drawn from ChEMBL document CHEMBL4138253.

# assay overview: Ratio of drug level in liver to plasma in C57BL/6 mouse at 2 mg/kg, po administered as single cassette dose via gavage measured at 3 hrs post dose
# Assay type: ADME, organism-based
Documented Kp at 3 h across a set of molecules
Lab note: write the figure by itself, no unit.

• CC[C@H]1[C@@H](O)[C@@H]2[C@H](CC[C@]3(C)[C@@H]([C@H](C)CCc4cc(O)no4)CC[C@@H]23)[C@@]2(C)CC[C@@H](O)C[C@@H]12 = 43
• CC[C@H]1[C@@H](O)[C@@H]2[C@H](CC[C@]3(C)[C@@H]([C@H](C)CCc4nnn[nH]4)CC[C@@H]23)[C@@]2(C)CC[C@@H](O)C[C@@H]12 = 76
• CC[C@H]1[C@@H](O)[C@@H]2[C@H](CC[C@]3(C)[C@@H]([C@H](C)CCNC(=O)C(=O)O)CC[C@@H]23)[C@@]2(C)CC[C@@H](O)C[C@@H]12 = 36

Now examine the next entry.
Please report the recorded Kp at 3 h for `CC[C@H]1[C@@H](O)[C@@H]2[C@H](CC[C@]3(C)[C@@H]([C@H](C)CCC(=O)NS(C)(=O)=O)CC[C@@H]23)[C@@]2(C)CC[C@@H](O)C[C@@H]12` .
124
